# Tested on: Hepatitis C virus
# methodDescription: Inhibition of HCV genotype 5a
# Type: functional, organism-based, Hepacivirus hominis

- sampleSmiles: "C=C[C@@H]1C[C@]1(NC(=O)[C@@H]1C[C@@H](Oc2ncc(OC)c3ccc(Cl)cc23)CN1C(=O)[C@@H](NC(=O)OC(C)(C)C)C(C)(C)C)C(=O)NS(=O)(=O)C1CC1"
  IC50 / nM: 1.7

----------
# system: Hepatitis C virus serine protease, NS3/NS4A (Hepatitis C virus, UniProt A3EZI9+D2K2A8)
# Sequence (D2K2A8 whole entry): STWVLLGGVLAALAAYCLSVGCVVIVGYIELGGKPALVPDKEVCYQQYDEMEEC
# Sequence (A3EZI9 whole entry): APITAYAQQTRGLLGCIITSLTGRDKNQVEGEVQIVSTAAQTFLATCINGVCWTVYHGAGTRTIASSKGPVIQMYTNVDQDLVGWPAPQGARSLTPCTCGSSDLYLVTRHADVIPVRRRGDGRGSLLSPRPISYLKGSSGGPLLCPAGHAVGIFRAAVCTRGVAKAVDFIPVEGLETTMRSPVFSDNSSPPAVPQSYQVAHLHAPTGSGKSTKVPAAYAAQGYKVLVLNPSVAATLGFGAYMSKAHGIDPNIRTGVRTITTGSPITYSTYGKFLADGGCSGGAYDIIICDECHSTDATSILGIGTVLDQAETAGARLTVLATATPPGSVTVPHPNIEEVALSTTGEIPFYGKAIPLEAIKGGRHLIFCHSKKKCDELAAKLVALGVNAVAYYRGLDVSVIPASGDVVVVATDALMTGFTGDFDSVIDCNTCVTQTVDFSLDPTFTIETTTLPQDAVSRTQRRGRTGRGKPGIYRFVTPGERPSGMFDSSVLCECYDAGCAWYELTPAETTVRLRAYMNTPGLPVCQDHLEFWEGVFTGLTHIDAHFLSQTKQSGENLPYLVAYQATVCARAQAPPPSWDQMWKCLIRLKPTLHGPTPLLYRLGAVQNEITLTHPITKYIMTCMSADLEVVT
# methodDescription: Inhibition of C-terminal HCV NS4A-NS3 protease
# Assay type: protein-complex assay, Hepacivirus hominis
propertyMeasured: IC50 (nM)

- sampleSmiles: "COc1ccc2c(O[C@@H]3C[C@H]4C(=O)N[C@]5(C(=O)O)C[C@H]5/C=C\\CCCCC[C@H](NC(=O)OC(C)(C)C)C(=O)N4C3)cc(-c3ccccc3)nc2c1"
  system: "Hepatitis C virus serine protease, NS3/NS4A (Hepatitis C virus, UniProt A3EZI9+D2K2A8)"
  propertyMeasured: "IC50"
  obsValue: 11

----------
# methodDescription: Aqueous solubility of the compound at pH 2.2 measured after 24 hrs
# Type: physicochemical
propertyMeasured: solubility at 24 h

- compound: "COc1ccc2c(c1)[C@@H]1C[C@]1(C(=O)N1[C@@H]3CC[C@H]1CN(C)C3)Cn1c-2c(C2CCCCC2)c2ccc(C(=O)NS(=O)(=O)N(C)C)cc21 [BECLABUVIR]"
  propertyMeasured: "solubility at 24 h"
  obsValue: "> 1600 µg/mL"

----------
# methodDescription: in vivo
# assayConditions: cynomolgus monkey, iv, 1 mg/kg
# Description: Half life in cynomolgus monkey at 1 mg/kg, iv measured after 24 hrs by HPLC method

- sampleSmiles: "C=C[C@@H]1C[C@]1(NC(=O)[C@@H]1C[C@@H](Oc2ncc(OC)c3ccc(Cl)cc23)CN1C(=O)[C@@H](NC(=O)OC(C)(C)C)C(C)(C)C)C(=O)NS(=O)(=O)C1CC1"
  half-life at 24 h / h: 1.3

----------
# methodDescription: AUC in FVB mouse at 5 mg/kg, po measured after 24 hrs by LC-MS/MS analysis
# Type: ADME, organism-based
# Set-up: dose 5 mg/kg, time 24 hrs, route po
# assayConditions: in vivo
propertyMeasured: AUC at 24 h (µM·h)

- sampleSmiles: "C=C[C@@H]1C[C@]1(NC(=O)[C@@H]1C[C@@H](Oc2ncc(OC)c3ccc(Cl)cc23)CN1C(=O)[C@@H](NC(=O)OC(C)(C)C)C(C)(C)C)C(=O)NS(=O)(=O)C1CC1"
  unitSymbol: "µM·h"
  obsValue: 0.54

----------
# methodDescription: AUC in Beagle dog at 3 mg/kg, po measured after 24 hrs by LC-MS/MS analysis
# Type: ADME, organism-based, Canis lupus familiaris
# Set-up: dose 3 mg/kg, time 24 hrs, route po
# assayConditions: in vivo

- sampleSmiles: "C=C[C@@H]1C[C@]1(NC(=O)[C@@H]1C[C@@H](Oc2ncc(OC)c3ccc(Cl)cc23)CN1C(=O)[C@@H](NC(=O)OC(C)(C)C)C(C)(C)C)C(=O)NS(=O)(=O)C1CC1"
  AUC at 24 h (µM·h): 2.2

----------
# methodDescription: Oral bioavailability in rat at 3 mg/kg
# Type: ADME, organism-based
# assayConditions: in vivo

- sampleSmiles: "O=C1Cn2c(c(C3CCCCC3)c3ccc(C(=O)O)cc32)-c2ccccc2N1"
  bioavailability: "17%"
